Source: patent US20180037631A1

# system: EGFR on the surface of human tumour cells (A431, H292) (human, UniProt P00533 25-1210)
# assay-method-text: cell-based or functional assay
assay-readout: % inhibition of EGFR phosphorylation at 100 nM binder, cell-based assay (%)

binder="E97 (designed binder) 10Fn3 domain: MGVSDVPRDLEVVAATPTSLLISWLPGKLRYQYYRITYGETGGNSPVQEFTVPHDLRTATISGLKPGVDYTITVYAVTDYKPHADGPHTYHESPISINYRTEIDKPSQ" test_result=89.3
binder="E96 (designed binder) 10Fn3 domain: MGVSDVPRDLEVVAATPTSLLISWASNRGTYQYYRITYGETGGNSPVQEFTVPGGVSTATISGLKPGVDYTITVYAVTDAFNPTTHEYNYFTTPISINYRTEIDKPSQ" test_result=91.7
binder="E87 (designed binder) 10Fn3 domain: MGVSDVPRDLEVVAATPTSLLISWGSPLIEYQYYRITYGETGGNSPVQEFTVPGGLSTATISGLKPGVDYTITVYAVTDYFNPATHEYTYHVSPISINYRTEIDKPSQ" test_result=87
binder="E90 (designed binder) 10Fn3 domain: MGVSDVPRDLEVVAATPTSLLISWYWEGLPYQYYRITYGETGGNSPVQEFTVPRDVNTATISGLKPGVDYTITVYAVTDWYNPDTHEYIYHTIPISINYRTEIDKPSQ" test_result=81.3
